Target: human CD73 on the cell surface (293T/17-huCD73 cells) (human) (UniProt P21589)
Sequence (P21589 27-549): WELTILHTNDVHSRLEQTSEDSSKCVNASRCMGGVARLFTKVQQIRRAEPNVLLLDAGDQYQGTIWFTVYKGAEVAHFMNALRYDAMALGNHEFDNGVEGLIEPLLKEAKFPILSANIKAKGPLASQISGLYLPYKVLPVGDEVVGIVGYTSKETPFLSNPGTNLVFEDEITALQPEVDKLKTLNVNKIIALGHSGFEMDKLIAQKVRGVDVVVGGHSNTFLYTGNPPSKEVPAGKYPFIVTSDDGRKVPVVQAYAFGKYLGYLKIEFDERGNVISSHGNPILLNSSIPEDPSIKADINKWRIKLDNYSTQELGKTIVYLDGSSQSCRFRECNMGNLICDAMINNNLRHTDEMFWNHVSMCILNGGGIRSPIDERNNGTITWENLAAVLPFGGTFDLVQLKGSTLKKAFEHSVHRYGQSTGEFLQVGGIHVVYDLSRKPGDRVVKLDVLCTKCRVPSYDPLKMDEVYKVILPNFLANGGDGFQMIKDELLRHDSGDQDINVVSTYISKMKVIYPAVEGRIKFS
Assay: cell-based or functional assay
Measured EC50, reversal of AMP-mediated human CD4+ T cell proliferation inhibition values are reported for all entries that follow.
Numbers only; they are read as nM.

Answered cases to consult:
binder: JB94H3L3 (antibody, human IgG1, kappa, V domains shown) VH: QVQLQQSGAEVKKPGASVKLSCKASGYTFTSYWMHWVRQRPGQGLEWIGYINPSSGYTKSNQKFKDRATLTADTSTSTAYMELSSLRSEDTAVYYCGRWLLSAWFAYWGQGTLVTVSS VL: DIQMTQSPSSLSASVGDRVTITCKASQDINTYLSWFQQKPGKSPKSLIYRSNILVDGVPSRFSGSGSGQDYTLTISSLQPEDFAIYYCLQYDDFPYTFGQGTKLEIKR
u: nM
reported measurement: 0.003
--
binder: JB94H2L1 (antibody, human IgG1, kappa, V domains shown) VH: QVQLVQSGAEVKKPGASVKVSCKASGYTFTSYWMHWVRQRPGQGLEWMGYINPSSGYTKSNQKFKDRVTLTADTSTSTAYMELSSLRSEDTAVYYCGRWLLSAWFAYWGQGTLVTVSS VL: DIQMTQSPSSLSASVGDRVTITCKASQDINTYLSWFQQKPGKAPKSLIYRSNILVDGVPSRFSGSGSGQDFTLTISSLQPEDFAIYYCLQYDDFPYTFGQGTKLEIKR
u: nM
reported measurement: 0.032
--
binder: JB24Chi (antibody, human IgG1, kappa, V domains shown) VH: QVQLQQSGLELVKPGASVKMSCKASGYTFTDYNMHWVKQSHGKSLEWIGYIKPHNGGTTYNPKFEGKATLTVNKSSSTAYMELRSLTSEDSAVYYCVRCDFLYWYFDVWGTGTTVTVSS VL: DIVMTQSPAIMSASLGERVTMTCTASSSVSSSYLHWYQQKPGSSPKLWIYSTSNLASGVPGRFSGSGSGTSYSLTISSMEAEDAATYYCHQYHRSPLTFGAGTKLEMKR
u: nM
reported measurement: 0.003

Turning to the following binder.
Entry JB24H3L2 (antibody, human IgG1, kappa, V domains shown) VH: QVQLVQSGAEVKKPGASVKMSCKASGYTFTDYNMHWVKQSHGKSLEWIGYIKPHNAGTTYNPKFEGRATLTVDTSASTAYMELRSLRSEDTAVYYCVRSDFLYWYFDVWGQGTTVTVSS VL: DIQMTQSPSSLSASVGDRVTITCTASSSVSSSYLHWYQQKPGSAPKLWIYSTSNLASGVPSRFSGSGSGTDYTLTISSLQPEDFATYYCHQYHRSPLTFGAGTKLEIKR : reported EC50, reversal of AMP-mediated human CD4+ T cell proliferation inhibition = ? 0.022

All values here come from patent US20220064322A1.
